Entries and their pIC50
biological target: Cytochrome P450 2D6 (Homo sapiens, UniProt P10635)
Sequence (P10635 whole entry): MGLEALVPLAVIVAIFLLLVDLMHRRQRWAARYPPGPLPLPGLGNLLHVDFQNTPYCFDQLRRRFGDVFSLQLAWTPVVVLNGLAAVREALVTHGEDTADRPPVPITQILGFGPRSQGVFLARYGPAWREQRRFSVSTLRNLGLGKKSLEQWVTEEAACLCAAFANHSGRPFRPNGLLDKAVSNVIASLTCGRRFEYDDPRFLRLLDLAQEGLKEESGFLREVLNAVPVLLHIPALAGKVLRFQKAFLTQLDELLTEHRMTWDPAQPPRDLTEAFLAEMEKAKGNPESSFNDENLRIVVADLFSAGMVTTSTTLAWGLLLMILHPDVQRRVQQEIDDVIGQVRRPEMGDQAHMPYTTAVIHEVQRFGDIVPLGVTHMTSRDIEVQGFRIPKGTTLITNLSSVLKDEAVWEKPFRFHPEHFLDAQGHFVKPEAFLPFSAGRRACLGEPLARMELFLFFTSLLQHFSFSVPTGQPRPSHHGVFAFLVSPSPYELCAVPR
pIC50: −log10 of the molar value.

chemical.smiles	system	pIC50
O=C(O)c1ccc(-n2cc(C(=O)c3c(Cl)cccc3Cl)c3c(F)cccc32)c(F)c1	Cytochrome P450 2D6 (Homo sapiens, UniProt P10635)	< 4.30
O=C(O)c1ccc(-n2cc(C(=O)c3c(Cl)cccc3C(F)(F)F)c3cccnc32)c(F)c1	Cytochrome P450 2D6 (Homo sapiens, UniProt P10635)	< 4.30
O=C(O)c1ccc(-n2cc(C(=O)c3c(Cl)cccc3Cl)c3ccccc32)cc1	Cytochrome P450 2D6 (Homo sapiens, UniProt P10635)	< 4.00
O=C(O)c1ccc(-n2cc(C(=O)c3c(Cl)cccc3C(F)(F)F)c3c(F)cccc32)c(F)c1	Cytochrome P450 2D6 (Homo sapiens, UniProt P10635)	< 4.30

---

assay: Metabolic stability in mouse liver microsomes assessed as parent compound remaining at 1 uM preincubated for 5 mins followed by NADPH addition after 30 mins by LC-MS/MS analysis; assay type: ADME, Microsome; settings: read-out: Stability

chemical.smiles	remaining at 0.5 h, 1 µM / %
O=C(O)c1ccc(-n2cc(C(=O)c3c(Cl)cccc3Cl)c3c(F)cccc32)cc1	100
O=C(O)c1ccc(-n2cc(C(=O)c3ccccc3Cl)c3ccccc32)cc1	96
O=C(O)c1ccc(-n2cc(C(=O)c3c(F)cccc3Cl)c3ccccc32)cc1	100

---

assay: Metabolic stability in rat liver microsomes assessed as parent compound remaining at 1 uM preincubated for 5 mins followed by NADPH addition after 30 mins by LC-MS/MS analysis; assay type: ADME, Microsome; details: read-out: Stability
The label T is reserved for remaining at 0.5 h, 1 µM strictly under 70%; F covers values equal to or above it.

chemical.smiles	answer.label
O=C(O)c1ccc(-n2cc(C(=O)c3c(Cl)cccc3Cl)c3ccccc32)cc1O	T
CCS(=O)(=O)c1ccc(CC(=O)Nc2cc(Cl)c(-c3ccccc3OC(F)(F)F)c(Cl)c2)cc1	T
O=C(O)c1ccc(-n2cc(C(=O)c3c(Cl)cccc3C(F)(F)F)c3ccccc32)cc1	F
O=C(O)c1ccc(-n2cc(C(=O)c3c(Cl)cccc3Cl)c3c(F)cccc32)cc1	F
O=C(O)c1ccc(-n2cc(C(=O)c3c(Cl)cccc3Cl)c3cc(F)ccc32)cc1	F
Cc1cccc(Cl)c1C(=O)c1cn(-c2ccc(C(=O)O)cc2F)c2cccc(F)c12	T
O=C(O)c1ccc(-n2cc(C(=O)c3c(Cl)cccc3Cl)c3ccccc32)c(C(F)(F)F)c1	T
O=C(O)c1ccc(-n2cc(C(=O)c3c(Cl)cccc3Cl)c3c(F)cccc32)c(F)c1	T
O=C(O)c1ccc(-n2cc(C(=O)c3c(Cl)cccc3Cl)c3ccccc32)c(Cl)c1	T
O=C(O)c1ccc(-n2cc(C(=O)c3c(Cl)cccc3C(F)(F)F)c3c(F)cccc32)c(F)c1	F
O=C(O)c1ccc(-n2cc(C(=O)c3c(Cl)cccc3Cl)c3ncccc32)cc1	F

---

Target: Nuclear receptor ROR-gamma (Homo sapiens, UniProt P51449)
Sequence (P51449 whole entry): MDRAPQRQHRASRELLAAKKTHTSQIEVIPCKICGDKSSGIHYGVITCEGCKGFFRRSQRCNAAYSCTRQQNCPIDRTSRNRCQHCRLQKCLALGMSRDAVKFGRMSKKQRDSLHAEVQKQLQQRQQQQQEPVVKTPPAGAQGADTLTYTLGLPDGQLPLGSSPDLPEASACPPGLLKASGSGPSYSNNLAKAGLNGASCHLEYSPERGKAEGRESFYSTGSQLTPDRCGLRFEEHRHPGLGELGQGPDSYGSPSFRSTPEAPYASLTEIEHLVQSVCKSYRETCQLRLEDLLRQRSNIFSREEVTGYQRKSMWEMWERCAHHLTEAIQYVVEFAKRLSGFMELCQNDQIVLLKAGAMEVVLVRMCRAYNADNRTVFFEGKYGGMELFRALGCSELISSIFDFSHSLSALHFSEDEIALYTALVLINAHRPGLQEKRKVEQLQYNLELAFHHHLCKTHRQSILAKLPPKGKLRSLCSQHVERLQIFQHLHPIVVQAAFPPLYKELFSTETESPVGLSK
Experiment: Transactivation of recombinant GAL4-DBD fused RORgammat LBD (unknown origin) expressed in HEK293T cells incubated for 18 to 24 hrs by dual-Glo luciferase assay
Format: cell-based
pIC50: −log10 of the molar value.
Classification field: enter criterion met for pIC50 values not below 7, criterion not met for values below it.

chemical.smiles	answer.label
O=C(O)c1ccc(-n2cc(C(=O)c3c(Cl)cccc3Cl)c3ccccc32)c(C(F)(F)F)c1	criterion not met
O=C(O)c1cc(F)c(-n2cc(C(=O)c3c(Cl)cccc3Cl)c3ccccc32)c(F)c1	criterion met
O=C(O)c1ccc(-n2cc(C(=O)c3c(Cl)cccc3Cl)c3ccccc32)cc1C(F)(F)F	criterion not met
Cc1cccc(Cl)c1C(=O)c1cn(-c2ccc(C(=O)O)cc2)c2ccccc12	criterion met
Cc1c(C(=O)c2c(Cl)cccc2Cl)c2ccccc2n1-c1ccc(C(=O)O)cc1	criterion not met
Cc1cccc(Cl)c1C(=O)c1cn(-c2ccc(C(=O)O)cc2)c2c(F)cccc12	criterion met
Cc1cc(C(=O)O)ccc1-n1cc(C(=O)c2c(Cl)cccc2Cl)c2ccccc21	criterion not met
O=C(O)c1ccc(-n2cc(C(=O)c3c(Cl)cccc3Cl)c3cc(F)ccc32)cc1	criterion not met
O=C(O)c1ccc(-c2nn(C(=O)c3c(Cl)cccc3Cl)c3ccccc23)cc1	criterion met
Cc1cccc(Cl)c1C(=O)c1cn(-c2ccc(C(=O)O)cc2F)c2ccccc12	criterion met
Cc1cccc(Cl)c1C(=O)c1cn(-c2ccc(C(=O)O)cc2F)c2cccc(F)c12	criterion met
O=C(O)c1ccc(-n2cc(C(=O)c3c(Cl)cccc3Cl)c3ccccc32)cc1F	criterion not met
O=C(O)c1ccc(-n2nc(C(=O)c3c(Cl)cccc3Cl)c3ccccc32)cc1	criterion met
O=C(O)c1ccc(-n2cc(C(=O)c3c(Cl)cccc3C(F)(F)F)c3c(F)cccc32)c(F)c1	criterion met
O=C(O)c1ccc(-n2cc(C(=O)c3c(F)cccc3F)c3ccccc32)cc1	criterion not met
O=C(O)c1cc(Cl)c(-n2cc(C(=O)c3c(Cl)cccc3Cl)c3ccccc32)c(Cl)c1	criterion not met
O=C(O)c1ccc(-n2cc(C(=O)c3c(Cl)cccc3Cl)c3ccc(F)cc32)cc1	criterion not met
COc1cccc2c(C(=O)c3c(Cl)cccc3Cl)cn(-c3ccc(C(=O)O)cc3)c12	criterion not met
O=C(O)c1ccc(-n2cc(C(=O)c3c(Cl)cccc3Cl)c3c(F)cccc32)c(F)c1	criterion met
O=C(O)c1ccc(-n2cc(C(=O)c3c(Cl)cccc3C(F)(F)F)c3c(F)cccc32)cc1	criterion met
O=C(O)c1ccc(-n2cc(C(=O)c3ccccc3Cl)c3ccccc32)cc1	criterion not met

Entry source: ChEMBL document CHEMBL4346735
